B1: TPR t1 (parent)
chain: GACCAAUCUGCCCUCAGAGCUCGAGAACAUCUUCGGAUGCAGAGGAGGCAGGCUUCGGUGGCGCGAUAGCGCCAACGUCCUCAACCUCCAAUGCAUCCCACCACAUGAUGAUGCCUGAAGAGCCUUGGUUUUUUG

- Variants of: B1
- Assay Name: polymerase ribozyme fitness, log enrichment relative to wild type (log ratio); higher = more active; in vitro selection for triplet polymerase activity
Could you please report measured polymerase ribozyme fitness (log ratio) for the items listed next?
In your answer, state the number alone without any accompanying words.

Lookup: Which measured polymerase ribozyme fitness (log ratio) value corresponds to C3A C53U U55A C73A G117A ?
Found: -4.29

Lookup: Quick check: polymerase ribozyme fitness (log ratio) of G19A C72U A75U C114A ?
Found: -2.05

Lookup: GET /values?readout=polymerase ribozyme fitness (log ratio)&item= C49U C124U U132A
Found: 0.615

Lookup: # get_value(readout='polymerase ribozyme fitness (log ratio)', item= G57U A75G A83C G117A )
Found: -2

Lookup: Tell me the measured polymerase ribozyme fitness (log ratio) of A16G G69U C73A C115U , please.
Found: -1.93

Lookup: What does the record list as polymerase ribozyme fitness (log ratio) for U32G C70U ?
Found: -7.16

Lookup: Sample A5C C13U A83G — what was its polymerase ribozyme fitness (log ratio)?
Found: -1.43

Lookup: # polymerase ribozyme fitness (log ratio) lookup, item U87C U96A
Found: 0.252

Lookup: Field request: polymerase ribozyme fitness (log ratio) | item: U7C C70U C101G
Found: -2.79

Lookup: Can you share its polymerase ribozyme fitness (log ratio)? I mean this variant: C22U G51A
Found: -4.81

Lookup: Which polymerase ribozyme fitness (log ratio) value is on record for U30A G48C C124A ?
Found: -5.2

Lookup: Entry U54A C70U C94A : reported polymerase ribozyme fitness (log ratio) = ?
Found: -1.72

Lookup: # input variant: A41U C89U G113U G117U ; wanted: its polymerase ribozyme fitness (log ratio)
Found: -5.95

Lookup: Sample C3G G42C G44U G63U C123A G128C — what was its polymerase ribozyme fitness (log ratio)?
Found: -3.73

Lookup: For the variant shown here, C73U G110U G120A , give the reported polymerase ribozyme fitness (log ratio).
Found: -2.15

Lookup: Consider the variant C20U U78C C124G and give its measured polymerase ribozyme fitness (log ratio).
Found: 0.066

Lookup: Would you mind telling me what polymerase ribozyme fitness (log ratio) value was observed for C11U C12A U96C ?
Found: -2.18
